- target-or-system: MRP1 (Multidrug resistance-associated protein 1) (Homo sapiens, UniProt P33527)
- Sequence (P33527 whole entry): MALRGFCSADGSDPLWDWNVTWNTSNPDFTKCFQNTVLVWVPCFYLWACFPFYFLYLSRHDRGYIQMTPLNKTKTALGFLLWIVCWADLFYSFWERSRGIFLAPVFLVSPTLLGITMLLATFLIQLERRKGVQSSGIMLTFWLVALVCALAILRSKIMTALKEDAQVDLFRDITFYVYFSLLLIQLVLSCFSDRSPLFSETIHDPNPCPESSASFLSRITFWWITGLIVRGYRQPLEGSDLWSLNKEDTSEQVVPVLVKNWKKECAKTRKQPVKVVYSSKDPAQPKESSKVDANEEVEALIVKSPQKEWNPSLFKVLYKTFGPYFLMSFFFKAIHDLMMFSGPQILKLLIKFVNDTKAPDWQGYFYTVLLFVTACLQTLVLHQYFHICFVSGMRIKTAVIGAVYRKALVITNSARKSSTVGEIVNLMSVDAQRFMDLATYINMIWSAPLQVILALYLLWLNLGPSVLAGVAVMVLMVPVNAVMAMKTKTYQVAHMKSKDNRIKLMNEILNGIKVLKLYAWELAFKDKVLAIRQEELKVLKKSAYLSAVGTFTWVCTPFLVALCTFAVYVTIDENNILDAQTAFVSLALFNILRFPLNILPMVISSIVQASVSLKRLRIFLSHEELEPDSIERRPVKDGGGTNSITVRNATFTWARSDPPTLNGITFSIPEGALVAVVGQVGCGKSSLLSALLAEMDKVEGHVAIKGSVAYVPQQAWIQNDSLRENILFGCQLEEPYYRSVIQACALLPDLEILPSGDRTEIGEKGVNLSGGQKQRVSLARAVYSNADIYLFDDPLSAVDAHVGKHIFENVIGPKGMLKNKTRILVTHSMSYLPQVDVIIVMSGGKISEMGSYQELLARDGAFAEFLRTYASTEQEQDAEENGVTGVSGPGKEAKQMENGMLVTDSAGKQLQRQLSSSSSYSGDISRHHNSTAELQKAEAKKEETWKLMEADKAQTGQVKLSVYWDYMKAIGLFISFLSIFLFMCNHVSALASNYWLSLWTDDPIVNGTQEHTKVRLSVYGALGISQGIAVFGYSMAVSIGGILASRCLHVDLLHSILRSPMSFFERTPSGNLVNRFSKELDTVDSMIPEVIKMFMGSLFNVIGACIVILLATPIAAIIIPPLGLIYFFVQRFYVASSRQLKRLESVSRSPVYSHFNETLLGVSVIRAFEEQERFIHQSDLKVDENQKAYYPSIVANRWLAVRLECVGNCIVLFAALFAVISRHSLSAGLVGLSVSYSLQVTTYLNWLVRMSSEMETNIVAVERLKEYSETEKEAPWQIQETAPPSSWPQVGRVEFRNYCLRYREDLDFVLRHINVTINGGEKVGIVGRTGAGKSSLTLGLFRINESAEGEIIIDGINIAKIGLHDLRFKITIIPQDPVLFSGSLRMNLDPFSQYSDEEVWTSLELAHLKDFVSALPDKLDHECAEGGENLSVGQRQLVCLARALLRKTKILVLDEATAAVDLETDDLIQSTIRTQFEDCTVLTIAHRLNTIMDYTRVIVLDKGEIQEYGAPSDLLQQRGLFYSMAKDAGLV
- measurement-protocol: Inhibition of human MRP1 mediated uptake of [3H]E2-17betaG in HEK cell membrane vesicles at 5 uM by liquid scintillation counting relative to control
- Assay type: cell membranes, HEK293
- condition: HEK cell membrane vesicles with human MRP1, probe [3H]E2-17betaG
inhibition at 5 µM values, listed per item
readout-type: inhibition at 5 µM (%)

CCCCc1cc(-c2ccc(N(C)C)cc2)cc(-c2ccc(N(C)C)cc2)[s+]1
70
CC(C)(C)c1cc(-c2ccc(C(=O)O)s2)cc(C(C)(C)C)[te+]1
24
CC(C)(C)c1cc(-c2ccc(C(=O)O)s2)cc(C(C)(C)C)[se+]1
15
CC(C)(C)c1cc(-c2ccc(C(=S)N3CCCCC3)s2)cc(C(C)(C)C)[te+]1
50

###

Known inhibition at 1 µM of a selection of molecules
- target-or-system: MRP1 (Multidrug resistance-associated protein 1) (Homo sapiens)
- measurement-protocol: Inhibition of human MRP1-mediated uptake of [3H]E2-17betaG in HEK cell membrane vesicles at 1 uM by liquid scintillation counting relative to control
- Assay type: cell membranes, HEK293
- condition: HEK cell membrane vesicles with human MRP1, probe [3H]E2-17betaG
readout-type: inhibition at 1 µM

CC(C)(C)c1cc(-c2ccc(C(=S)N3CCCCC3)s2)cc(C(C)(C)C)[s+]1.[Cl-]
0%
Nc1ccc(-c2cc(-c3ccc(N4CCOCC4)cc3)cc(-c3ccc(N)cc3)[te+]2)cc1
8%
CN(C)c1ccc(-c2cc(-c3ccc(C(=S)N4CCCCC4)s3)cc(C(C)(C)C)[s+]2)cc1.[Cl-]
36%
CC(C)(C)c1cc(-c2ccccc2)cc(C(C)(C)C)[se+]1
0%
CN(C)c1ccc(-c2cc(-c3ccc(C(=O)N4CCCCC4)s3)cc(-c3ccc(N(C)C)cc3)[s+]2)cc1.F[P-](F)(F)(F)(F)F
18%
CC(C)(C)c1cc(-c2ccc(C(=O)O)s2)cc(C(C)(C)C)[s+]1
8%
CC(C)(C)c1cc(-c2ccc(C(=O)N3CCCCC3)s2)cc(C(C)(C)C)[s+]1.F[P-](F)(F)(F)(F)F
0%
CN(C)c1ccc(-c2cc(-c3ccc(C(=S)N4CCCCC4)s3)cc(-c3ccc(N(C)C)cc3)[s+]2)cc1.[Cl-]
25%

###

- Test system: P-glycoprotein (MDR1)
- measurement-protocol: P-glycoprotein-mediated transport in MDCK2-MDR1 cells assessed as permeability across apical to basolateral side at 5 uM after 1 hr
- condition: dog, MDCK-MDR1
Papp A-B at 1 h, 5 µM below 0.2 ×10⁻⁶ cm/s gives not fulfilled; Papp A-B at 1 h, 5 µM at or above it gives fulfilled.

CN(C)c1ccc(-c2cc(-c3ccc(C(=S)N4CCCCC4)s3)cc(-c3ccc(N(C)C)cc3)[s+]2)cc1.[Cl-]
not fulfilled
CC(C)(C)c1cc(-c2ccc(C(=S)N3CCCCC3)s2)cc(C(C)(C)C)[s+]1.[Cl-]
not fulfilled
CN(C)c1ccc(-c2cc(-c3ccc(C(=O)N4CCCCC4)s3)cc(C(C)(C)C)[s+]2)cc1.F[P-](F)(F)(F)(F)F
fulfilled
CC(C)(C)c1cc(-c2ccc(C(=O)N3CCCCC3)s2)cc(C(C)(C)C)[s+]1.F[P-](F)(F)(F)(F)F
fulfilled
CN(C)c1ccc(-c2cc(-c3ccc(C(=O)N4CCCCC4)s3)cc(-c3ccc(N(C)C)cc3)[s+]2)cc1.F[P-](F)(F)(F)(F)F
not fulfilled
CN(C)c1ccc(-c2cc(-c3ccc(C(=S)N4CCCCC4)s3)cc(C(C)(C)C)[s+]2)cc1.[Cl-]
not fulfilled

###

inhibition values by entry
- Tested on: MDCK-II
- measurement-protocol: Inhibition of P-gp expressed in MDCK2-MDR1 cells at 5 uM by calcein AM accumulation assay relative to LSN 335984
- Type: cell-based
readout-type: inhibition (%)

CC(C)(C)c1cc(-c2ccc(C(=S)N3CCCCC3)s2)cc(C(C)(C)C)[s+]1
3.6
CCN(CC)C(=O)c1ccccc1-c1cc(-c2ccc(N(C)C)cc2)[s+]c(C(C)(C)C)c1
2
CCN(CC)C(=O)c1ccccc1-c1cc(C(C)(C)C)[s+]c(C(C)(C)C)c1
0
CC(C)(C)c1cc(-c2ccccc2)cc(C(C)(C)C)[s+]1
0
CN(C)c1ccc(-c2cc(-c3ccc(C(=S)N4CCCCC4)s3)cc(C(C)(C)C)[s+]2)cc1.[Cl-]
31
CC(C)(C)c1cc(-c2ccc(C(=O)O)s2)cc(C(C)(C)C)[s+]1
0

###

- target-or-system: MRP1 (Multidrug resistance-associated protein 1) (Homo sapiens, UniProt P33527)
- measurement-protocol: Inhibition of human MRP1 mediated uptake of [3H]E2-17betaG in HEK cell membrane vesicles at 30 uM by liquid scintillation counting relative to control
- Type: cell membranes, HEK293
- condition: HEK cell membrane vesicles with human MRP1, probe [3H]E2-17betaG
readout-type: inhibition at 30 µM (%)

c1ccc(-c2cc(-c3ccc(N4CCOCC4)cc3)[te+]c(-c3ccc(N4CCOCC4)cc3)c2)cc1
89
CN(C)c1ccc(-c2cc(-c3ccc(N(C)C)cc3)[s+]c(C(C)(C)C)c2)cc1
94
CC(C)(C)c1cc(-c2ccccc2)cc(C(C)(C)C)[te+]1
34
CN(C)c1ccc(-c2cc(-c3ccccc3)cc(C(C)(C)C)[s+]2)cc1
50
CCN(CC)C(=O)c1ccccc1-c1cc(C(C)(C)C)[s+]c(C(C)(C)C)c1
34
Cc1cc(C(C)(C)C)[se+]c(C(C)(C)C)c1
0
CCN(CC)C(=O)c1ccccc1-c1cc(C(C)(C)C)[se+]c(C(C)(C)C)c1
31
CC(C)(C)c1cc(-c2ccc(C(=S)N3CCCCC3)s2)cc(C(C)(C)C)[se+]1
81

###

- target-or-system: P-gp (ABCB1) (Homo sapiens)
- Sequence (P08183 whole entry): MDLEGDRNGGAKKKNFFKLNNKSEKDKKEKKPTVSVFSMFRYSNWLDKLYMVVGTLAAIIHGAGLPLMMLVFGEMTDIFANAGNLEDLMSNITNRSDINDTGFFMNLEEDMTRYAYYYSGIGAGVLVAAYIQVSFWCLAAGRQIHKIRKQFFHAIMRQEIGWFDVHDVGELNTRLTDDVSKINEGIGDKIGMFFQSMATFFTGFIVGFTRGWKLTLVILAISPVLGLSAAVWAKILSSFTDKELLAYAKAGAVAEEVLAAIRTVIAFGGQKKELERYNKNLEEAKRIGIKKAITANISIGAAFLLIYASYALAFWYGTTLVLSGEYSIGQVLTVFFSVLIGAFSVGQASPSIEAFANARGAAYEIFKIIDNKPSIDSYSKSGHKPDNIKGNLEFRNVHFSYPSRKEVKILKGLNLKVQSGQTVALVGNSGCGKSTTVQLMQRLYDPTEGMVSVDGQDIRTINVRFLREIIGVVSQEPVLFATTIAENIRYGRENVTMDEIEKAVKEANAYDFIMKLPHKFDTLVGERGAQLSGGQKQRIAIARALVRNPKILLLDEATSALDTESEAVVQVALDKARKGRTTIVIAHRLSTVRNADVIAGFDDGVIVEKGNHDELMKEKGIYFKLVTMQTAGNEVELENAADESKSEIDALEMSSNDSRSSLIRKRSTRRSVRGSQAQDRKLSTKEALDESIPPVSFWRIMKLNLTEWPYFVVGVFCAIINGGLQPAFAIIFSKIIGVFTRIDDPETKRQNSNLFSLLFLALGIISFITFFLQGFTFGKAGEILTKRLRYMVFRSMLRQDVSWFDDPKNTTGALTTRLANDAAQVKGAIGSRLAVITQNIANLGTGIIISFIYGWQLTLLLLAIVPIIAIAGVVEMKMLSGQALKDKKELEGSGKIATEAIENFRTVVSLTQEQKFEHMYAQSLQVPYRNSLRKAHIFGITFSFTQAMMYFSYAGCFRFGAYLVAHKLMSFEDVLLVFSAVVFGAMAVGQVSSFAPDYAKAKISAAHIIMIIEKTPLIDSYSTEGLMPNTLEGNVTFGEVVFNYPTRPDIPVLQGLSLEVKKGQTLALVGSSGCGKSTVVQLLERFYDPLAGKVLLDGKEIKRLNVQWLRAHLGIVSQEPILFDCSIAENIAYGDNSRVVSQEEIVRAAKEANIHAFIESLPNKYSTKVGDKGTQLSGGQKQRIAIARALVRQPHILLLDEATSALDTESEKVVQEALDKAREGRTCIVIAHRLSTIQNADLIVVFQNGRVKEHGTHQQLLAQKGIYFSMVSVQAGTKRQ
- measurement-protocol: Induction of ATPase activity of human His10-tagged P-gp expressed in BHK cells assessed as inorganic phosphate release after 30 mins relative to control
- Assay type: cell-based
- condition: human His10-tagged P-gp expressed in BHK cells, read-out: FC
readout-type: fold induction at 0.5 h

CN(C)c1ccc(-c2cc(-c3ccc(N(C)C)cc3)[te+]c(C(C)(C)C)c2)cc1
8.4
c1ccc(-c2cc(-c3ccc(N4CCOCC4)cc3)[te+]c(-c3ccc(N4CCOCC4)cc3)c2)cc1
4
CC(C)(C)c1cc(-c2ccc(C(=S)N3CCCCC3)s2)cc(C(C)(C)C)[te+]1
7.4
CCN(CC)C(=O)c1ccccc1-c1cc(C(C)(C)C)[se+]c(C(C)(C)C)c1
5.9
CN(C)c1ccc(-c2cc(-c3ccc(C(=O)N4CCCCC4)s3)cc(-c3ccc(N(C)C)cc3)[s+]2)cc1.F[P-](F)(F)(F)(F)F
6
CCCCc1cc(-c2ccc(N(C)C)cc2)cc(-c2ccc(N(C)C)cc2)[s+]1
5.9
CC(C)(C)c1cc(-c2ccc(C(=S)N3CCCCC3)s2)cc(C(C)(C)C)[s+]1.[Cl-]
3.7
CCN(CC)C(=O)c1ccccc1-c1cc(C(C)(C)C)[s+]c(C(C)(C)C)c1
7.9
CN(C)c1ccc(-c2cc(-c3ccc(N(C)C)cc3)[s+]c(C(C)(C)C)c2)cc1
7.2
CN(C)c1ccc(-c2cc(-c3ccc(C(=S)N4CCCCC4)s3)cc(-c3ccc(N(C)C)cc3)[s+]2)cc1.[Cl-]
5.7
CN(C)c1ccc(-c2cc(-c3ccc(C(=O)O)s3)cc(C(C)(C)C)[s+]2)cc1
13
CN(C)c1ccc(-c2cc(-c3ccc(C(=S)N4CCCCC4)s3)cc(C(C)(C)C)[s+]2)cc1.[Cl-]
5.2
